Provenance of the data: paper PMC3288537

# Subject Of Test: UniProt Q15256
# Sequence (Q15256 22-657): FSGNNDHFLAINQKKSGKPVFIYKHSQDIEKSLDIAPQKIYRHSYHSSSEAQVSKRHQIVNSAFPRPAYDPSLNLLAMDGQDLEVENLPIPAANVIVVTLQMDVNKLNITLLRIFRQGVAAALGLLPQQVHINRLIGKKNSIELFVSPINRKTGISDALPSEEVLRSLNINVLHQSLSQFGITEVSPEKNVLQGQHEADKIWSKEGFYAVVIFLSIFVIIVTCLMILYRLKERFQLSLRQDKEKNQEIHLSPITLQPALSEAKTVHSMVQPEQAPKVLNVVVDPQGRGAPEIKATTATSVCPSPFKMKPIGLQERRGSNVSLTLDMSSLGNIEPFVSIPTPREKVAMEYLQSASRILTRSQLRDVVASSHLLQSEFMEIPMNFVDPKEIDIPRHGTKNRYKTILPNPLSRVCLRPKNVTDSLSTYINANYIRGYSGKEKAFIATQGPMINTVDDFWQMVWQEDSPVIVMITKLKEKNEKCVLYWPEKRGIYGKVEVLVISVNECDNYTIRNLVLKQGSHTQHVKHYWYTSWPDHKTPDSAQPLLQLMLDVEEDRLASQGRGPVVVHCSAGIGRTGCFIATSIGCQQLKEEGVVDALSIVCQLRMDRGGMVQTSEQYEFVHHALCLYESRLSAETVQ
Experimental Readout: IC50 (µM)
I only need the number, in µM, no unit after it.

Request: Could you share what IC50 was measured for O=C(O)c1ccccc1-c1ccc(/C=c2\sc3nc4cc(Br)cnc4n3c2=O)o1 , tested on UniProt Q15256?
Result: 1.1

* * *

# Subject Of Test: UniProtKB Q9Y2R2
# Sequence (Q9Y2R2 whole entry): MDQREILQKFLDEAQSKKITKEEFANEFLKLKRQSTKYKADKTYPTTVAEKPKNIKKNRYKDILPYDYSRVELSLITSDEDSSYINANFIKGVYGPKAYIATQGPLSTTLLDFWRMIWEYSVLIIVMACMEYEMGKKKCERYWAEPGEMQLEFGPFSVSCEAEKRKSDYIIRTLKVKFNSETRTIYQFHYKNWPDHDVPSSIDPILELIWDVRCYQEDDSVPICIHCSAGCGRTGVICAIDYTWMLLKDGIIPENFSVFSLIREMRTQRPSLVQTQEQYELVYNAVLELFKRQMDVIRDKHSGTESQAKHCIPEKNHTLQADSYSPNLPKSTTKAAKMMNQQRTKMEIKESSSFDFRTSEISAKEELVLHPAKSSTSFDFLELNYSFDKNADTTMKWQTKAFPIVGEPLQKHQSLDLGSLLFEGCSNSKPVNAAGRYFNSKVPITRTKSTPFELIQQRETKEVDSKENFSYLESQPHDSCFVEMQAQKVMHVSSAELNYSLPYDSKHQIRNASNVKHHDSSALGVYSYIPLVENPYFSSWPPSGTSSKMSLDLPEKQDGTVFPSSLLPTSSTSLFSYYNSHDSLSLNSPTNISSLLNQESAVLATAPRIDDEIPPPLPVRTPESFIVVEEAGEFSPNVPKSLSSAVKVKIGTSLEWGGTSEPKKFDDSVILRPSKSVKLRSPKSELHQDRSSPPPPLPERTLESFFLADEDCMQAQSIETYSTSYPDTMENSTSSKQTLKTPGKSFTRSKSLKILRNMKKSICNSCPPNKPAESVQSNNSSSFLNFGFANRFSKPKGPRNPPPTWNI
Experimental Readout: pIC50
For clarity, pIC50 is expressed as the negative log10 of concentration in mol/L.

Request: Could you share what pIC50 was measured for O=C(O)c1ccccc1-c1ccc(/C=c2\sc3nc4cc(Br)cnc4n3c2=O)o1 , tested on UniProtKB Q9Y2R2?
Result: 5.72

* * *

# Subject Of Test: LAR (Homo sapiens)
# Sequence (P10586 30-1907, species assumed): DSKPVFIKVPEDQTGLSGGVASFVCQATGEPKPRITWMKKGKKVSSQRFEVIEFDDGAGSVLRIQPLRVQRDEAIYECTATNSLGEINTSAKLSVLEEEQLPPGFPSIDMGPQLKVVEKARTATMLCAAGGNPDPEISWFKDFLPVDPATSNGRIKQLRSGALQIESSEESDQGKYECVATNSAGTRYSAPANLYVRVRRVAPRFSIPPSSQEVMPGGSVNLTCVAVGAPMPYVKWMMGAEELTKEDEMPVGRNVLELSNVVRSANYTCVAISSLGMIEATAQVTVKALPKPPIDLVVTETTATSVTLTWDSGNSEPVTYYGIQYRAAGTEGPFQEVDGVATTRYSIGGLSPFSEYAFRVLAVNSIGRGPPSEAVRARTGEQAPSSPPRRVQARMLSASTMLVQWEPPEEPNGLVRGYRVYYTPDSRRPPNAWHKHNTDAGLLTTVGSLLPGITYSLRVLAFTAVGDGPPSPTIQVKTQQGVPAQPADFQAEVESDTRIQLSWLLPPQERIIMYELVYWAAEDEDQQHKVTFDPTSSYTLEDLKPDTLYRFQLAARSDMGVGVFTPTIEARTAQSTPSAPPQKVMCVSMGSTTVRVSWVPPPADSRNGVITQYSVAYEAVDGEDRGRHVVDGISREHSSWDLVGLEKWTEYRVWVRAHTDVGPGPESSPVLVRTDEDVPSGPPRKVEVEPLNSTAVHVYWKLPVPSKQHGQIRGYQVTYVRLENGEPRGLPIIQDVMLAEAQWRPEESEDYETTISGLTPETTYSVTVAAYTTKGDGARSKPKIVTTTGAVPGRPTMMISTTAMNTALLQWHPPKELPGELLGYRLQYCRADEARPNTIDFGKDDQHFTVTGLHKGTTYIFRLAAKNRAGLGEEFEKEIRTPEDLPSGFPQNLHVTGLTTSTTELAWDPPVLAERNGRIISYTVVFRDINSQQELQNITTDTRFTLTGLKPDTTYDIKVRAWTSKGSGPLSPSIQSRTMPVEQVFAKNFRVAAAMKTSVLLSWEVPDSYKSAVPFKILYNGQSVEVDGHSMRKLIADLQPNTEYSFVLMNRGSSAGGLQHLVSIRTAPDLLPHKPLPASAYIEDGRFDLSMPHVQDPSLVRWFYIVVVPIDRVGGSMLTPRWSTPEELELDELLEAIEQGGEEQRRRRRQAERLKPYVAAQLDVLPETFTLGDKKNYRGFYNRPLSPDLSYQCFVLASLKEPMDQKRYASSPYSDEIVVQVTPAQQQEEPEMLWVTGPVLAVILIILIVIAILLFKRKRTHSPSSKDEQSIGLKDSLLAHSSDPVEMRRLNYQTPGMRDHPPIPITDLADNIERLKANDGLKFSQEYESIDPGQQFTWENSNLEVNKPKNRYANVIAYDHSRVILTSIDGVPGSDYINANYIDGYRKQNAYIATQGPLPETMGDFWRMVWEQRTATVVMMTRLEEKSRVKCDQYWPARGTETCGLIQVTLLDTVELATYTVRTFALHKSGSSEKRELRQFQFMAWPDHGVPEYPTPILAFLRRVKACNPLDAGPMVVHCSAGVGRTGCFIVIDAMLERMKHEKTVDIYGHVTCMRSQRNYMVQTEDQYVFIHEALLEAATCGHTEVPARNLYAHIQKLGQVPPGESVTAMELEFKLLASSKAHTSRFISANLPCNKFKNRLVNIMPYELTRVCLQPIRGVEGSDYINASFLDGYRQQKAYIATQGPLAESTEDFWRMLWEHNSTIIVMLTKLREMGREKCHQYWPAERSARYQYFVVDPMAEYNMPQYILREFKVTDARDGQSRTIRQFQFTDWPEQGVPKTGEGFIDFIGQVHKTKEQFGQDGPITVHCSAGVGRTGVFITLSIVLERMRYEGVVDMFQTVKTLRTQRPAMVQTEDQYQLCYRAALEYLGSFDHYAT
Experimental Readout: IC50 (µM)
I only need the number, in µM, no unit after it.

Request: Please report the recorded IC50 for O=C(O)c1ccccc1-c1ccc(/C=c2\sc3nc4cc(Br)cnc4n3c2=O)o1 .
Result: 73
